- Target Under Test: EGFR L858R/T790M/C797S (Homo sapiens, UniProt P00533, C797S/L858R/T790M)
- Sequence (P00533 25-1210 T790M/C797S/L858R): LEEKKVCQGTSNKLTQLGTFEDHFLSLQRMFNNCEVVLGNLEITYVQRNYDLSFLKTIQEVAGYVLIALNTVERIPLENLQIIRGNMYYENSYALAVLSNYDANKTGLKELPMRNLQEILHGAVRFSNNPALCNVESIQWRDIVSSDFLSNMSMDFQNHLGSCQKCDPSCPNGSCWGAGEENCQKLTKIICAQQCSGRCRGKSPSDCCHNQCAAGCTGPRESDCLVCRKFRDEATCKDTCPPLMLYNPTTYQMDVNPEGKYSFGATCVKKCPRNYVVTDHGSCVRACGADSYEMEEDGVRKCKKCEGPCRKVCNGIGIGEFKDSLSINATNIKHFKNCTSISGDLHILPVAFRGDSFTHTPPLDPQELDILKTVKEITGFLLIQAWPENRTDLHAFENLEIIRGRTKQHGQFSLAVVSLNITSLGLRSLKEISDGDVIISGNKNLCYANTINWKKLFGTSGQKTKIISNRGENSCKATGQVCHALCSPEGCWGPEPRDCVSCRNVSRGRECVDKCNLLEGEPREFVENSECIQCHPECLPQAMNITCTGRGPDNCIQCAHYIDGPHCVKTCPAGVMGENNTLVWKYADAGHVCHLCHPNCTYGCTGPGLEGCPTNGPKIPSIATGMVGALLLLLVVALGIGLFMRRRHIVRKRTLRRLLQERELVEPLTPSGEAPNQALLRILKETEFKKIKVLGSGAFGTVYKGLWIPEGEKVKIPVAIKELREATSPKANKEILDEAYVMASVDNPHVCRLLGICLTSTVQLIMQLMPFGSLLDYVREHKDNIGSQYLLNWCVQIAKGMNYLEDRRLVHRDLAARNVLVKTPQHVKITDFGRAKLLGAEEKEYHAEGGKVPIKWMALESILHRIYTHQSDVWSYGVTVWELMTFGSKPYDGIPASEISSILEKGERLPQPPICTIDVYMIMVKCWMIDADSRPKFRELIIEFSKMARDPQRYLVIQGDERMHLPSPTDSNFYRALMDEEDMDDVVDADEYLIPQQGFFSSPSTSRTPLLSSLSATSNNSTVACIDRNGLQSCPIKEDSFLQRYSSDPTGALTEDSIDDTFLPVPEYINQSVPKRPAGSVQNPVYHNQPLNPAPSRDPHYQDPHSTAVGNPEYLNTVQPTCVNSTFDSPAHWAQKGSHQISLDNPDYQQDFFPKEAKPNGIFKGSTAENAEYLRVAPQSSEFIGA
- Protocol Notes: Biochemical EGFR kinase assay (Lance Ultra TR-FRET), triple mutant L858R/T790M/C797S
- Applied Conditions: Km ATP; read-out: IC50 L858R/T790M/C797S (nM) Km ATP
Measured Attribute: IC50 (nM)

Molecule | IC50 [nM]
CN1CC(Nc2cc(Nc3ccnc(-c4cnn(S(=O)(=O)C5CC5)c4)n3)ncc2-c2ccn(C(F)F)n2)CCC1=O (centres unmarked) [Example 37] | 0.7

I = CC1(O)CCC(Nc2cc(Nc3ccnc(-c4cnn(C5CCCO5)c4)n3)ncc2-c2ccn(C(F)F)n2)CC1 (centres unmarked) [Example 318]
II = Cn1nc(-c2cnc(Nc3ccnc(-c4cnn(S(=O)(=O)C5CC5)c4)n3)cc2N[C@H]2CC[C@@H](F)CC2)cc1C(F)(F)F [Example 175]
Between the entries labelled I and II , which has a larger IC50 value on record? Could you answer with the label of the item you picked? II

###

- Target Under Test: EGFR del19/T790M/C797S (Homo sapiens, UniProt P00533, C797S/DEL746-750/T790M)
- Sequence (P00533 with tags, fused parts or gaps DEL746-750/T790M/C797S): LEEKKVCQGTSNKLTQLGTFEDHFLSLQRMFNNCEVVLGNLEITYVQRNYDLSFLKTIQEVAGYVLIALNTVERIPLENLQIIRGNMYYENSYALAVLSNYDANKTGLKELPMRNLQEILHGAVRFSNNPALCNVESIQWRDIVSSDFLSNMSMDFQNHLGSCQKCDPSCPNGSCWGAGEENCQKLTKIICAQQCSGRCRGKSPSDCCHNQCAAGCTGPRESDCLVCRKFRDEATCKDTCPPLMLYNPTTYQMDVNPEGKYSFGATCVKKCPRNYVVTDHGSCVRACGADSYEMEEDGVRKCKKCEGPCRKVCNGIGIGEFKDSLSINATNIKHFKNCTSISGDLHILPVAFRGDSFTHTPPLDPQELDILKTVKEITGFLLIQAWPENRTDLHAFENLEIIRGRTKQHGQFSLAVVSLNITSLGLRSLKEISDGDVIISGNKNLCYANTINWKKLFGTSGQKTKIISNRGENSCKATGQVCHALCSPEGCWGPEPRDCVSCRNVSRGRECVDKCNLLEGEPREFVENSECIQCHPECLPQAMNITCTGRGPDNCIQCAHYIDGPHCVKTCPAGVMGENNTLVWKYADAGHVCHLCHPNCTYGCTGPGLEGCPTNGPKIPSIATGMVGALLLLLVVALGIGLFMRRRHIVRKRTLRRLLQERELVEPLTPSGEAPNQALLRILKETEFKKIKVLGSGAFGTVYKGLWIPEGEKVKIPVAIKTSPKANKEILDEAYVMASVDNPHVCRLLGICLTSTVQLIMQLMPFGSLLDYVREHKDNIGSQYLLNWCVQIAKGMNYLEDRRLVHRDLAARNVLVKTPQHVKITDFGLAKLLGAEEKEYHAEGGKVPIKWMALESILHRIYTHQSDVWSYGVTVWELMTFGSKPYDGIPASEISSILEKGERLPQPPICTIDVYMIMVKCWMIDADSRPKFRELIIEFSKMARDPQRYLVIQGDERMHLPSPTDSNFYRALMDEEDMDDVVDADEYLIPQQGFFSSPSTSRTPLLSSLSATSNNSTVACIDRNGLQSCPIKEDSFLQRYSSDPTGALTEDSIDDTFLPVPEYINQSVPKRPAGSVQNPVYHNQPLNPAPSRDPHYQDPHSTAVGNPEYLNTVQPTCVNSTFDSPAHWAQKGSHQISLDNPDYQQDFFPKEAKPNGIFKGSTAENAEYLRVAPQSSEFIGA
- Protocol Notes: Biochemical EGFR kinase assay (Lance Ultra TR-FRET), triple mutant del19/T790M/C797S
- Applied Conditions: Km ATP; read-out: IC50 del19/T790M/C797S (nM) Km ATP
Measured Attribute: IC50 (nM)

Compound | IC50 [nM]
CC(C)c1cc(-c2cnc(Nc3ccnc(-c4cnn(S(=O)(=O)C5CC5)c4)n3)cc2N[C@H]2CC[C@@](C)(O)CC2)on1 | 1

I = CN(C)CCCn1ccc(-c2cnc(Nc3ccnc(-c4cnn(S(=O)(=O)C5CC5)c4)n3)cc2N[C@H]2CC[C@@H](CO)CC2)n1
II = O=S(=O)(C1CC1)n1cc(-c2nccc(Nc3cc(N[C@H]4CC[C@@H](CO)CC4)c(-c4cc5n(n4)CCCC5)cn3)n2)cn1
III = O=S(=O)(C1CC1)n1cc(-c2nccc(Nc3cc(N[C@H]4CC[C@@H](F)CC4)c(-c4ccn(CCC(F)(F)F)n4)cn3)n2)cn1
IV = CCC(C)Nc1cc(Nc2ccnc(-c3cnn(S(=O)(=O)C4CC4)c3)n2)ncc1-c1ccn(C(F)F)n1 (stereo not drawn)
V = O=S(=O)(C1CC1)n1cc(-c2nccc(Nc3cc(NC[C@H]4CC[C@@H](O)C4)c(-c4ccn(C(F)F)n4)cn3)n2)cn1
Sort the 5 compounds by IC50; largest first, smallest last. Ranked list of labels, please, in the requested order. III, IV, II, V, I

###

- Target Under Test: EGFR wildtype (WT) (Homo sapiens, UniProt P00533)
- Sequence (P00533 25-1210): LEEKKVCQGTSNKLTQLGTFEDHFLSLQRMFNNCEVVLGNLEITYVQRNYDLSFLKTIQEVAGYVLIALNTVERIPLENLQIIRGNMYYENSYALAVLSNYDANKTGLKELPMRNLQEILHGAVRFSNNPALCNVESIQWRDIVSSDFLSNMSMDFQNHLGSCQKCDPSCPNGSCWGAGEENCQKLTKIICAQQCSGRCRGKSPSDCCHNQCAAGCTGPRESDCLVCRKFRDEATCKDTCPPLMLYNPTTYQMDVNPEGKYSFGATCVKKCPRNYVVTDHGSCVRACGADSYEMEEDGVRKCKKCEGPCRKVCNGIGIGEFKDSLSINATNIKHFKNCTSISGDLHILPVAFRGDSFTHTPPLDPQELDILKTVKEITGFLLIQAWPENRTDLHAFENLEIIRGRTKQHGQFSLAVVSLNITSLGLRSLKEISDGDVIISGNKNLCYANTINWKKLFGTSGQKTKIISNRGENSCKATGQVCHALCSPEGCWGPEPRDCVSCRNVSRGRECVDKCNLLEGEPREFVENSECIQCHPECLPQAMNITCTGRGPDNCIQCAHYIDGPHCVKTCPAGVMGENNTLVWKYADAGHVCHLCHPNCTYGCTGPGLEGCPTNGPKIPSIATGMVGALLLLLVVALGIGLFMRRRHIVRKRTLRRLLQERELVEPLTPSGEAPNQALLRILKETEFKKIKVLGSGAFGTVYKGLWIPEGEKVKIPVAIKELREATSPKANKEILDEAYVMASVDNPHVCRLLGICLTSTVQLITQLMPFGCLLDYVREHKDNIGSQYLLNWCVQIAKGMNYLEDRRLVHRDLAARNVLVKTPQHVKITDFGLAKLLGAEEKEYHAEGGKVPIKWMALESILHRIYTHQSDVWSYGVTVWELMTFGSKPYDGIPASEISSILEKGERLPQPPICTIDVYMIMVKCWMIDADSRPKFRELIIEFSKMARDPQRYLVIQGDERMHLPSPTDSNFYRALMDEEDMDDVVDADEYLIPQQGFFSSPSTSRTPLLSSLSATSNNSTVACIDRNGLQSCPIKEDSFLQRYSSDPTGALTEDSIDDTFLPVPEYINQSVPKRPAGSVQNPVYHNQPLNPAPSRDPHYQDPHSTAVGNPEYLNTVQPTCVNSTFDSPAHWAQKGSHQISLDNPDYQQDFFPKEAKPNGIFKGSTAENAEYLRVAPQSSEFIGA
- Protocol Notes: Biochemical EGFR kinase assay (Lance Ultra TR-FRET), wildtype
- Applied Conditions: IC50 WT (nM) 100 μM ATP, 100 μM ATP
Measured Attribute: IC50 (nM)

P = Cn1ccc(-c2cnc(Nc3ccnc(-c4cnn(S(=O)(=O)C5CC5)c4)n3)cc2NC[C@H]2CC[C@@H](O)C2)n1
Q = Cn1ccc(-c2cnc(Nc3ccnc(-c4cnn(S(=O)(=O)C5CC5)c4)n3)cc2NC[C@H]2C[C@H](CO)C2)n1
# compare IC50 for P vs Q ; return the one with the smaller value Could you answer with the label of the item you picked? P
(P: 1320 nM, Q: 3020 nM)
